experiment: yeast display, Sf9 membrane polyspecificity reagent, FACS + sequencing; frameworks hold sequencing errors
Observation Type: polyreactivity (PSR sort gate)

# count of solved cases: 5
QVQLVESGGGLVQAGGSLRLSCAASGRIFVYNAKGWNRQAPGKERQLVAAISYNGGGTYYADSVKGRFTISRDNAKNTVYLQMNSLKPEDTAVYYCAARYRSWTGKYEYWGQGTQVTVSS ... high polyreactivity
QVQLVESGGGLVQAGGSLRLSCAASGRIFDGYAMGWYRQAPGKERELVAAINRSGSSTYYADSVKGRFTISRDNAKNTVYLQMNSLKPEDTAVYYCNARSGNRYGPRYDYWGQGTQVTVSS ... high polyreactivity
QVQLVESGGGLVQAGGSLRLSCAASGRTFTNYAMGWYRQAPGKERELVAAAITVGGGRTYYADSVKGRFTISRDNAKNTVYLQMNSLKPEDTAVYYCATDFGTYWYEYWGQGTQVTVSS ... high polyreactivity
QVQLVESGGGLVQAGGSLRLSCAASGSIFYQYAMGWYRQAPGTERELVAAITWIGSPNYADSVKGRFTISRDNAKNTVYLQMNSLKPEDTAVYYCNTDPYVLQKYDYWGQGTQVTVSS ... low polyreactivity
QVQLVESGVGLVQAGGSLRLSCAASGRTFTPYAMGWYRQAPGKEREFVAAISIVGRTKYADSVKGRFTISRDNAKNTVYLQMNSLKPEDTAVYYCNAQDSRDRKFYWGYTRGHWGLGTQVTVSS ... low polyreactivity

Data request: Entry under review: "QVQLVESGGGLVQAGGSLRLSCAASGITFNQYAMGWYRQAPGKERELVARITKRGGSTYYADSVKGRFTISRDNAKNTVYLQMNSLKPEDTAVYYCAARTYYQEYDYWGQGTQVTVSS" . Reported polyreactivity (PSR sort gate)?
Data returned: high polyreactivity

Data request: Entry under review: "QVQLVESGGVLDQAGGSLRLSFAASGFTFGAYAMGWYRHAPGKETELVASISWSGGSTYYADSVKGRFTISRDNAKNPVYLQMNSVKPEDTAVYYCNKDFVYPEDDGLFDFWGQGTQVTVSS" . Reported polyreactivity (PSR sort gate)?
Data returned: low polyreactivity

Data request: Entry under review: "QVQRVESGGGLVQAAASLRLSCAASGRTFYVYTMGWYRPAPGKERELVAAITSGGSTNYADSVKGRFTISRDNAKNTVSLHMNSLKPEVTAVYYCAARVSTVFKRYYYWGQGTQVTVSS" . Reported polyreactivity (PSR sort gate)?
Data returned: high polyreactivity

Data request: Entry under review: "QVQLVESGGGLVQAGGSLRLSCAASGSIFTVYGMGWYRQAPGKERELVAAITCTSGGTYYADSVKGRFTISRDNAKNTVYLQMNSLKPEDTAVYYCNADGGSGAYLDLTITDYDYWGQGTQVTVSS" . Reported polyreactivity (PSR sort gate)?
Data returned: low polyreactivity

Data request: Entry under review: "QVQLVESGGGLVQAGGRLRLSCAASGIIVGLYTMGWYRQARGKERELVAAISDSGGRTYYADSVKGRFTISRDNVKNTVYLQMNSLKPEDTAVYYCATRWPHYGGYYYWGQGTQVTVSS" . Reported polyreactivity (PSR sort gate)?
Data returned: high polyreactivity

Data request: Entry under review: "QVQLVESGGGLVQAGGSLRLSCAASGSTFYIYAMGWYRQAPGKERELVARISGSGGSTYYADSVKVRFTISRDNAKNTVYLQMNSLKPEDTAVYYCAVDPPYSDSLSRYGYWGQGTQVTVSS" . Reported polyreactivity (PSR sort gate)?
Data returned: low polyreactivity

====

experiment: yeast display, Sf9 membrane polyspecificity reagent, FACS + sequencing; frameworks hold sequencing errors
Observation Type: polyreactivity (PSR sort gate)

# count of solved cases: 5
QVQLVESGGGLVQAGGSLRLSCAASGRTFYGYAMGRYRQAPGKERELVAAISSGGSTYYADSVKGRFTISRDNAKNTVYLQMNSLKPEDTAVYDCAAVKWRRHGGSSEYDYWGQGTQVTVSS ... high polyreactivity
QVQLVESGGGLVQAGGSLRLSCAASGSTFFLYAMGWYRQAAGKERELVAAISVSGGSTRYADSVNGRFTISRDHAKNTVYLQMNSLKPEDTAVYYCAAASRLEYSHATLYYWGQGTQVTVSS ... high polyreactivity
QVQLVESGGGLVQAGGSLRLSCAASGSIFGGYAMGWYRQAPGKERELVAAISSGGSTYYADSVKGRFTISRDNAKNTVYLQMKSLKPEDTAVYYCATSTYAYRRNSYYYTRPRFGYWGQGTQVTVSS ... high polyreactivity
QVQLVESGGGLVQAGGSLRLSCAASGRIFYRYAMGWSRPAHGKERELVASISGSGGRTYYADSVKGRFTISRDNAKNTVYLQMNSLKPEDTAVSYCAARIRPSYDWGQGTQVTVSS ... high polyreactivity
QVQLVESGGGLVQAGGSLRLSCAASGYIVTSYTMGWYIQAPGKERELVAAISASDGSTYADSVKGRFTISRDNAKNTVYLQMNSLKPEDTAVYYCNKAAYGGHRTSEQVGWVYLYDYWGQGTQVTVSS ... low polyreactivity

Data request: Entry under review: "QVQLVESGGGLVQAGGSLRLSCAASRRTFKPYAMGWYRQAPGKERELVARISGSGGSTYYADSVKGRFTISRDNAKNTVYLQMNSLKPEDTAVYYCATTPYYWFDYWGQGTQVTVSS" . Reported polyreactivity (PSR sort gate)?
Data returned: low polyreactivity

Data request: Entry under review: "QVQLEESGGGLVQAGGSLRLSCAASGSIIWSYAMGWYRQAPGKERELVAVINWSGGSTYYADSVKGRFTISRDNAKNTVYLQMNSLKPEDTAVYYCNKDLGPTKRPFTFDYWGQGTQVTVSS" . Reported polyreactivity (PSR sort gate)?
Data returned: low polyreactivity

Data request: Entry under review: "QVQLVESGGGLVQAGGSLRLSCAASGFVYYVMGWYRQAPGKERELVAAISKGGGRTYYADSVKGRFTISRDNAKNTVYLQMNSLKPEDTAVYYCNADGGLPKYDYWGQGTQVTVSS" . Reported polyreactivity (PSR sort gate)?
Data returned: high polyreactivity

Data request: Entry under review: "QVQLVESGGGLVQAGGSLRLSCAASGSTFYAYAMGWYRQAPGKERELVAVITSSGSTYYADSVKGRFTISRDNAKNTVYLQMNSLKPEDTAVYYCAAKRLSQSRRTQFRTRYPPMYYWGQGTQVTVSS" . Reported polyreactivity (PSR sort gate)?
Data returned: high polyreactivity

Data request: Entry under review: "QVQLVESGGGLVQAGGSLRLSCAASGITFRYYAMGLYRQAPGKERELVAAITRSASSTFYADSVKGRFTISRDNAKNTVYLQMNSLKPEVTAVYYCAAESVRAVFPDRYKYWGQGTQVTVSS" . Reported polyreactivity (PSR sort gate)?
Data returned: high polyreactivity

Data request: Entry under review: "QVQLVESGGGLDQAGGSLRLSCAASGIILYGYTMGGYRQAPGKERELVAAINRGGSTNYADSVKGRFTISRDNAKNTVYLQMNSLKPEDTAVYYCAVDTVVASTYDYWGQGTQVTVSS" . Reported polyreactivity (PSR sort gate)?
Data returned: low polyreactivity

====

test: yeast display, Sf9 membrane polyspecificity reagent, FACS + sequencing; frameworks hold sequencing errors
Observation Type: polyreactivity (PSR sort gate)

QVQLVESGGGLVQAGGSLRLSCAASGRTFYRYAMGWYRQAPGKERELVAAITTSGGSTYYADSVKGRFTISRDNAKNTVYLQMNSLKPEDTSVYYCSATYYGYHIRDDYWGQGTQVTVSS ... low polyreactivity
QVQLVESGGGLVQAGGSLRLTCAASGSTFRYYDMGWYRQAPGKERELVAAITTSGDDTYYADSVKRRFTISRDNAKNSVYLPMNSLKPEDTAVYYCAADGYGGHKYELESWGQGTQVTVSS ... low polyreactivity

====

test: yeast display, Sf9 membrane polyspecificity reagent, FACS + sequencing; frameworks hold sequencing errors
Observation Type: polyreactivity (PSR sort gate)

# count of solved cases: 4
QVQLVESGGGLVQAGGRLRLSCAASGRTFGWYAMGWYRQAPGKERELVASITQRGGRTYYADSVKGRFTISRDNAKNTVYLQMNSLKPEDTAVYYCAAKTSPGMYYWGQGTQVTVSS ... high polyreactivity
QVQLVESGGGLVQAGGSLRLSCAASGRTFRTYVMGWYRQAPGKEREFVAGITWSSGSTRYADSVKGRFTISRDNAKNTVYLQMNSLKPEDTAVYYCAAKRWPGTDGYWGQGTQVTVSS ... high polyreactivity
QVQLVESGGGLVQAGGSLRLSCAASGFTFRRYAMGWYRQAPGKERELVAAISYGGGRTYYAESVKGRFTISRDNAKNTVYLQMNSLKPEDTAVYYCAADVLSRYVGEADYWGQGTQVTVSS ... high polyreactivity
QVQLVESGGGLVQAGGSHRLSCAASGSISRRYAMGWYRQAPGKERELVAAINQSGGRTYYADSVKGRFTISRDNAKNTVYLQMNSLKPEDTAVYYCAARLSGYDYWGQGTQVTVSS ... high polyreactivity

Data request: Entry under review: "QVQLQESGGGLVQAGDSQRLSCAASGNIFRFTDRGWYRQAPGKERELVAAINAGSTTYYADSVKGRFTISRDNAKNTVYLQMNSLKPEDTAVYYCAVYYLGSGTFGYWGQGAQVTVSS" . Reported polyreactivity (PSR sort gate)?
Data returned: high polyreactivity
